targetSystem: Membrane-bound transcription factor site-1 protease (Homo sapiens, UniProt Q14703)
Sequence (Q14703 whole entry): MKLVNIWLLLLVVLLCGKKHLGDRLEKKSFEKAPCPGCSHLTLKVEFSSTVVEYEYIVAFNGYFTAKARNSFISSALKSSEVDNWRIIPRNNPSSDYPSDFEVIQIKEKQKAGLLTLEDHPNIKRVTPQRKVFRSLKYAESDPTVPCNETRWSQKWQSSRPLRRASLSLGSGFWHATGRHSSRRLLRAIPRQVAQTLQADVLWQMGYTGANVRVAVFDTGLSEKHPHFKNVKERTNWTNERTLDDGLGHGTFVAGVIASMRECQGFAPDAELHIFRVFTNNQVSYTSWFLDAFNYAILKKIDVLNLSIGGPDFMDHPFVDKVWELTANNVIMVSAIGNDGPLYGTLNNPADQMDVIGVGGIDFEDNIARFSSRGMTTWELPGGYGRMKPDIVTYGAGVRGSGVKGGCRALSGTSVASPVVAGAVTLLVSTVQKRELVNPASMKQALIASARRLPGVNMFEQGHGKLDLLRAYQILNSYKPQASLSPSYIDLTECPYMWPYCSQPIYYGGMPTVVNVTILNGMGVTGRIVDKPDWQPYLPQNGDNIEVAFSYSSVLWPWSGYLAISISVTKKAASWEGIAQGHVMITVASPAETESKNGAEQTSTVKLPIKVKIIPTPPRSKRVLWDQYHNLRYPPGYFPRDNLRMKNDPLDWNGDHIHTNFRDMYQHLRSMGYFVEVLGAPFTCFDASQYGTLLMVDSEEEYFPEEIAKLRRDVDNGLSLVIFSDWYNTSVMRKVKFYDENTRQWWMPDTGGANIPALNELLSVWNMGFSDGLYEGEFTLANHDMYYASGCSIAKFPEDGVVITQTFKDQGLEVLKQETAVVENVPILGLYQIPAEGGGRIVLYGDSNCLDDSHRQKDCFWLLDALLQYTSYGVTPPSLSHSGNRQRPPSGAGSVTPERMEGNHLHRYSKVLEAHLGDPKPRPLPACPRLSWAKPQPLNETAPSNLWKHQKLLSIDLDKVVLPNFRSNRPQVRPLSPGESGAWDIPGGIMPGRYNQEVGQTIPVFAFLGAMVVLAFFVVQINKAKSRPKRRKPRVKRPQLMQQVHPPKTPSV
protocolDescription: Inhibition of human S1P expressed in CHOK1 cells
valueKind: IC50

IN: Suppose we examine the compound CC(C)Oc1ccc(C(=O)N(CCc2ccccc2Cl)C2CCSC2)cc1 (stereo not given) ; what IC50 value has been reported?
OUT: > 30 µM

IN: Suppose we examine the compound CC(C)Oc1ccc(C(=O)N(CCc2ccccc2Cl)C2CCCNC2)cc1 (stereo not given) ; what IC50 value has been reported?
OUT: > 30 µM

IN: Suppose we examine the compound "CC(C)Oc1ccc(C(=O)N(CCc2ccccc2Cl)C2CNC2)cc1" ; what IC50 value has been reported?
OUT: > 30 µM

IN: Suppose we examine the compound O=C(c1ccc(CN2CCCCC2)cc1)N(CCc1ccccc1Cl)C1CCOC1 (stereo not given) ; what IC50 value has been reported?
OUT: > 30 µM

IN: Suppose we examine the compound CC(C)Oc1ccc(C(=O)N(Cc2ccccc2Cl)C2CCNC2)cc1 (stereo not given) ; what IC50 value has been reported?
OUT: > 5 µM

Data provenance is ChEMBL document CHEMBL1149569.
